These entries and their values trace back to ChEMBL document CHEMBL3393045.

- System: Hepatitis C virus
- Measurement protocol: Antiviral activity against HCV genotype 1b infected in human Huh-5.2 cells assessed as decrease in HCV replicon RNA replication after 4 days by luciferase assay
- Format: functional, cell-based, Hepacivirus hominis
- Measurement context: Huh-5-2, 96 h
Please go through the items and note down their pEC50.
Please note pEC50 is a logarithmic value: minus log10 of concentration in mol/L. Answer with that number alone.

# return recorded pEC50 for input COC(=O)N[C@H](C(=O)N1C[C@@H](C)C[C@H]1c1ncc(-c2ccc(-c3cc4sc(-c5cc6[nH]c([C@@H]7C[C@H](C)CN7C(=O)[C@@H](NC(=O)OC)C(C)C)nc6s5)cc4s3)cc2)[nH]1)C(C)C
10.92

# return recorded pEC50 for input COC(=O)N[C@H](C(=O)N1C[C@@H](C)C[C@H]1c1cc2cc(-c3ccc(-c4cc5[nH]c([C@@H]6C[C@H](C)CN6C(=O)[C@@H](NC(=O)OC)C(C)C)nc5s4)cc3)ccc2[nH]1)C(C)C
10.35

# return recorded pEC50 for input COC(=O)N[C@H](C(=O)N1C[C@@H](C)C[C@H]1c1ncc(-c2ccc(-c3ccc(-c4cc5[nH]c([C@@H]6C[C@H](C)CN6C(=O)[C@@H](NC(=O)OC)C(C)C)nc5s4)s3)cc2)[nH]1)C(C)C
11.40

# return recorded pEC50 for input COC(=O)N[C@H](C(=O)N1C[C@@H](C)C[C@H]1c1ncc(-c2ccc(-c3ccc(-c4cc5[nH]c([C@@H]6C[C@H](C)CN6C(=O)[C@@H](NC(=O)OC)C(C)C)nc5s4)c(F)c3)cc2)[nH]1)C(C)C
11.70

# return recorded pEC50 for input COC(=O)N[C@H](C(=O)N1C[C@@H](C)C[C@H]1c1nc2sc(-c3ccc(-c4ccc5oc([C@@H]6C[C@H](C)CN6C(=O)[C@@H](NC(=O)OC)C(C)C)nc5c4)cc3)cc2[nH]1)C(C)C
9.94

# return recorded pEC50 for input COC(=O)N[C@H](C(=O)N1C[C@@H](C)C[C@H]1c1ncc(-c2ccc(-c3ccc(-c4cc5[nH]c([C@@H]6C[C@H](C)CN6C(=O)[C@@H](NC(=O)OC)C(C)C)nc5s4)cc3C)cc2)[nH]1)C(C)C
11.70

# return recorded pEC50 for input COC(=O)N[C@H](C(=O)N1C[C@@H](C)C[C@H]1c1ncc(-c2ccc(-c3ccc(-c4cc5[nH]c([C@@H]6C[C@H](C)CN6C(=O)[C@@H](NC(=O)OC)C(C)C)nc5s4)c(C)c3)cc2)[nH]1)C(C)C
11.40

# return recorded pEC50 for input COC(=O)N[C@H](C(=O)N1C[C@@H](C)C[C@H]1c1cn2ccc(-c3ccc(-c4cc5[nH]c([C@@H]6C[C@H](C)CN6C(=O)[C@@H](NC(=O)OC)C(C)C)nc5s4)cc3)cc2n1)C(C)C
10.39

# return recorded pEC50 for input COC(=O)N[C@H](C(=O)N1C[C@@H](C)C[C@H]1c1nc2sc(-c3ccc(-c4ccc5c(c4)nc([C@@H]4C[C@H](C)CN4C(=O)[C@@H](NC(=O)OC)C(C)C)n5C)cc3)cc2[nH]1)C(C)C
10.72

###

- Measurement protocol: Metabolic stability in human liver microsomes assessed as remaining parent compound level at 5 uM after 30 mins in presence of NADPH and UDPGA
- Assay type: ADME
- Measurement context: read-out: Stability
Please go through the items and note down their remaining at 0.5 h, 5 µM.
# number only, unit % dropped from output

# return recorded remaining at 0.5 h, 5 µM for input COC(=O)N[C@H](C(=O)N1C[C@@H](C)C[C@H]1c1ncc(-c2ccc(-c3ccc(-c4cc5[nH]c([C@@H]6C[C@H](C)CN6C(=O)[C@@H](NC(=O)OC)C(C)C)nc5s4)s3)cc2)[nH]1)C(C)C
100

# return recorded remaining at 0.5 h, 5 µM for input COC(=O)N[C@H](C(=O)N1C[C@@H](C)C[C@H]1c1ncc(-c2ccc(-c3ccc(-c4cc5[nH]c([C@@H]6C[C@H](C)CN6C(=O)[C@@H](NC(=O)OC)C(C)C)nc5s4)cc3)cc2)[nH]1)C(C)C
90
